Molecular target: Dual specificity tyrosine-phosphorylation-regulated kinase 1A (Homo sapiens) (UniProt Q13627)
Settings: at 0.1 µM
Description: GSK_PKIS: DYRK1A mean inhibition at 0.1 uM [Nanosyn]
Item-by-item account of inhibition
API: value field is a number in %; no unit string.

structureString	inhibition [%]
CCn1c(-c2nonc2N)nc2c(C#CC(C)(C)O)nc(OCCNC)cc21	2.71
CN(C)C(=O)O[C@@H]1CN[C@@H](C#Cc2cc3ncnc(Nc4ccc(OCc5cccc(F)c5)c(Cl)c4)c3s2)C1	0.28

For this compound ( Oc1cccc(-c2nc(-c3ccccc3)[nH]c2-c2ccncc2)c1 ), measured inhibition is 2.29

For this compound ( COC(=O)c1cncc(/C=C/c2c(C)cc(O)cc2C)c1 ), measured inhibition is 2.81

For this compound ( FC(F)(F)c1ccc(-c2nn3ncccc3c2-c2ccnc(Nc3ccc4c(c3)OCCO4)n2)cc1 ), measured inhibition is 5.25

For this compound ( N#Cc1cccc(Nc2nccc(-c3cnn4ncccc34)n2)c1 ), measured inhibition is 81.7

For this compound ( N#Cc1c(NC(=O)c2ccccc2F)sc2c1CCCC2 ), measured inhibition is -0.74

For this compound ( ON=C1CCc2cc(-c3nc(C4CCNCC4)[nH]c3-c3ccncc3)ccc21 ), measured inhibition is -0.17

For this compound ( [O-][S+]1CCN(Cc2ccc(-c3ccc4ncnc(Nc5ccc(OCc6ccccc6)c(Cl)c5)c4c3)o2)CC1 ), measured inhibition is 1.81

For this compound ( COc1cc(Nc2nccc(-c3cnn4ncccc34)n2)cc(OC)c1 ), measured inhibition is 85

For this compound ( Cc1cc(O)cc(C)c1/C=C/c1cncc(C(=O)N(C)C)c1 ), measured inhibition is 1.64

For this compound ( O=C1Nc2ccc(-c3cccnc3)cc2C1=Cc1cc(Br)c(O)c(Br)c1 ), measured inhibition is 21.7

For this compound ( CS(=O)(=O)Nc1cccc(-c2ccc3c(NC(=O)C4CC4)n[nH]c3c2)c1 ), measured inhibition is -0.85

====

Item-by-item account of inhibition
Target: Calcium/calmodulin-dependent protein kinase type II subunit alpha (Homo sapiens) (UniProt Q9UQM7);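 also: reported value is a mean percent inhibition of CAMK2A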
Sequence (Q9UQM7 whole entry): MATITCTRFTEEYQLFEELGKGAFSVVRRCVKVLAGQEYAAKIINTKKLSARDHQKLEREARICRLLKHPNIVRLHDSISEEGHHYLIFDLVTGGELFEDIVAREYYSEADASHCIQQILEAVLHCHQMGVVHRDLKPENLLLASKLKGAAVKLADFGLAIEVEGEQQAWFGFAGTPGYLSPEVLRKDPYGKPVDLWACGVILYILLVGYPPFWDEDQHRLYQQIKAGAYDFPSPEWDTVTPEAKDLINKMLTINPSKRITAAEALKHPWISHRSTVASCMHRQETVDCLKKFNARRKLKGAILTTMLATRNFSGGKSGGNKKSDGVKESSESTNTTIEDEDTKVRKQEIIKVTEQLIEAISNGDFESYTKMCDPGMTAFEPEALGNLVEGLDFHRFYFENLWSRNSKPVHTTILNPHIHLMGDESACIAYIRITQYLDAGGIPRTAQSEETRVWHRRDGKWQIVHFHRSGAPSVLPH
Details: at 1 µM
API: value field is a number in %; no unit string.

structureString	reportedMeasurement
NS(=O)(=O)c1cccc(-c2cc3ccncc3cc2OCc2ccccc2)c1	4.81
CCn1c(-c2nonc2N)nc2ccc(F)cc21	3.68
CN1CCN(C(=O)c2ccc(NC(=O)Nc3ccc(N(C)c4ccnc(Nc5ccc(CS(C)(=O)=O)cc5)n4)cc3)cc2)CC1	3.13
Nc1nccc(-c2c(-c3ccc(F)cc3)nn3cc(C(F)(F)F)ccc23)n1	-1.99
COc1ccc2ncnc(Nc3ccc(OCc4ccccc4)cc3)c2c1	2.13

For this molecule ( COc1cc(Nc2nccc(-c3cnn4ncccc34)n2)cc(OC)c1 ), measured inhibition is 15.2

For this molecule ( CCS(=O)(=O)c1ccc(OC)c(Nc2nccc(N(C)c3ccc4c(C)n[nH]c4c3)n2)c1 ), measured inhibition is -0.61

For this molecule ( O=C1Nc2ccccc2/C1=C/Nc1ccc2[nH]c(=O)[nH]c2c1 ), measured inhibition is 6.6

For this molecule ( Cc1ccc(C(=O)NC2CC2)cc1-c1ccc2[nH]ncc2c1 ), measured inhibition is -2.98

For this molecule ( Nc1nccc(-c2c(-c3ccc(F)cc3)ncn2CCCN2CCOCC2)n1 ), measured inhibition is 2.46

For this molecule ( [O-][S+]1CCN(Cc2ccc(-c3ccc4ncnc(Nc5ccc(OCc6ccccc6)c(Cl)c5)c4c3)o2)CC1 ), measured inhibition is -1.1

For this molecule ( Cc1cc(O)cc(C)c1/C=C/c1cncc(C(=O)N(C)C)c1 ), measured inhibition is 3.57

For this molecule ( ON=C1CCc2cc(-c3nc(C4CCNCC4)[nH]c3-c3ccncc3)ccc21 ), measured inhibition is 3.5

For this molecule ( CN(C)c1cc2c(Nc3ccc4c(cnn4Cc4ccccc4)c3)ncnc2cn1 ), measured inhibition is 2.41

For this molecule ( NC(=O)c1cccc(Nc2nccc(Nc3cccc(F)c3)n2)c1 ), measured inhibition is 0.53

For this molecule ( COC(=O)Nc1nc2cc(Oc3ccc(NC(=O)Nc4cccc(Br)c4)cc3)ccc2[nH]1 ), measured inhibition is 2.07

For this molecule ( COc1cccc(-n2ncc3c(N/N=C/c4ccc(C)cc4)ncnc32)c1 ), measured inhibition is 5.56

====

Target: Phosphorylase b kinase gamma catalytic chain, liver/testis isoform (Homo sapiens) (UniProt P15735);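 also: reported value is the mean inhibition of PHKG2 from the GSK_PKIS screening set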
Sequence (P15735 whole entry, canonical isoform): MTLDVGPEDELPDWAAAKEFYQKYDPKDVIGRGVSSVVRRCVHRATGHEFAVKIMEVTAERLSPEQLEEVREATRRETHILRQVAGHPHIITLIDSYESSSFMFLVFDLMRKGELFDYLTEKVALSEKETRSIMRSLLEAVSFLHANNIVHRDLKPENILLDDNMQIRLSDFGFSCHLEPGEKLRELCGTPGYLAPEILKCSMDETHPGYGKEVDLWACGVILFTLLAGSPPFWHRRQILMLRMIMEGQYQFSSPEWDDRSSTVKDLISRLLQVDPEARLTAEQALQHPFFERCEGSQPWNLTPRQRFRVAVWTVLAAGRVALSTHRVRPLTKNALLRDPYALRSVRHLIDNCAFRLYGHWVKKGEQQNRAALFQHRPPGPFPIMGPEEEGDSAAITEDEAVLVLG
Settings: at 1 µM
assayMetric: inhibition
Please report the result as a number followed by the unit.

Guide cases for inhibition, answers given:
structureString	inhibition
c1ccc(Cc2nc3ccc(Nc4ncnc5ccccc45)cc3[nH]2)cc1	4.89%
CN(C)C(=O)O[C@@H]1CN[C@@H](C#Cc2cc3ncnc(Nc4ccc(OCc5cccc(F)c5)c(Cl)c4)c3s2)C1	-1.09%
COc1cccc(-n2ncc3c(N/N=C/c4ccc(C)cc4)ncnc32)c1	5.98%
Cc1ccc(O)cc1Nc1ccnc2ccc(S(C)(=O)=O)cc12	7.16%

Proceeding to the next molecule to report its inhibition.
For this molecule ( N#Cc1cccc(Nc2nccc(-c3cnn4ncccc34)n2)c1 ), measured inhibition is 22.2%

====

Target: Dual specificity protein kinase CLK3 (Homo sapiens)
Conditions: at 0.1 µM
Description: GSK_PKIS: CLK3 mean inhibition at 0.1 uM [Nanosyn]
assayMetric: inhibition (%)
API: value field is a number in %; no unit string.

Guide cases for inhibition, answers given:
structureString	inhibition [%]
NS(=O)(=O)c1ccc(Nc2cc(-c3cccc(O)c3)n[nH]2)cc1	1.95
C[C@@H](Oc1cc(-n2cnc3ccc(OC[C@@H](O)CO)cc32)sc1C(N)=O)c1ccccc1Cl	0.13
FC(F)(F)c1ccc(-c2nn3ncccc3c2-c2ccnc(Nc3ccc4c(c3)OCCO4)n2)cc1	5.98
Cc1ccc2c(-c3ccnc(Nc4ccc5c(c4)OCCO5)n3)c(-c3ccc(C(F)(F)F)cc3)nn2n1	1.41
NC(=O)c1cccc(Nc2nccc(Nc3cccc(F)c3)n2)c1	-0.43

Proceeding to the next compound to report its inhibition.
For this compound ( Nc1nccc(C#Cc2cncnc2Nc2ccc(OCc3cccc(F)c3)c(Cl)c2)n1 ), measured inhibition is 1.85

====

Item-by-item account of inhibition
Target: Ribosomal protein S6 kinase alpha-3 (Homo sapiens) (UniProt P51812)
Sequence (P51812 whole entry): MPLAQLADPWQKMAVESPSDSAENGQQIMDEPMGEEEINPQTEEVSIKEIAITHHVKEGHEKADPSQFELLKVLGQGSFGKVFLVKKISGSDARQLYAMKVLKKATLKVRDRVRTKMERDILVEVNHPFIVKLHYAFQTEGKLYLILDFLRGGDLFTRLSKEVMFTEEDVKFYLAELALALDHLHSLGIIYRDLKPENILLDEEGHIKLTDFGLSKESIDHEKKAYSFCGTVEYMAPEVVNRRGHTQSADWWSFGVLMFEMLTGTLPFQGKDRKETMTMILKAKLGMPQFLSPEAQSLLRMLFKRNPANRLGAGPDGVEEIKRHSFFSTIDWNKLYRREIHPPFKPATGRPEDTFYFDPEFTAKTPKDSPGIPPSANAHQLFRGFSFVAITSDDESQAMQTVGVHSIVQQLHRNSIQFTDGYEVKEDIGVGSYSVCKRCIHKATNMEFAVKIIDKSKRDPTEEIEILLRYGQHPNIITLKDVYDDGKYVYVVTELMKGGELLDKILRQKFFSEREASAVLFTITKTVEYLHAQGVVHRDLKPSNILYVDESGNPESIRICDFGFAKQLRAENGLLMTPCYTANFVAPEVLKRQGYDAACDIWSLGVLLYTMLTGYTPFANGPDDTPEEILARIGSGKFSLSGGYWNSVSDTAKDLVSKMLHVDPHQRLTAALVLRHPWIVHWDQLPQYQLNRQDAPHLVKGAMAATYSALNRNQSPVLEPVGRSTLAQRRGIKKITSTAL
Conditions: at 1 µM
Description: GSK_PKIS: RSK2 mean inhibition at 1 uM [Nanosyn]
API: value field is a number in %; no unit string.

Guide cases for inhibition, answers given:
molecule	inhibition [%]
c1ccc(Nc2ncc(-c3ccccc3)o2)cc1	0.02
Oc1cccc(-c2nc(-c3ccccc3)[nH]c2-c2ccncc2)c1	2.76
CCCN1CCCC(c2ccc(Nc3nc(Nc4cc(F)ccc4C(N)=O)c4cc[nH]c4n3)c(OC)c2)C1 (centres undefined)	40.2
C[C@@H](Oc1cc(-n2cnc3ccc(OCC4CCN(C)CC4)cc32)sc1C(N)=O)c1ccccc1C(F)(F)F	52
CCOc1nccc2c1nc(-c1nonc1N)n2CC	17.1

For this molecule ( COc1cccc(-n2ncc3c(N/N=C/c4ccc(C)cc4)ncnc32)c1 ), measured inhibition is 5.14

For this molecule ( Nc1nccc(-c2c(-c3ccc(F)cc3)ncn2CCCN2CCOCC2)n1 ), measured inhibition is 2.6

For this molecule ( COc1cc2ncnc(Nc3ccc4c(cnn4Cc4ccccc4)c3)c2cc1OC ), measured inhibition is 2.23

For this molecule ( CCn1c(-c2nonc2N)nc2ccc(F)cc21 ), measured inhibition is 9.91

For this molecule ( Nc1nccc(C#Cc2cncnc2Nc2ccc(OCc3cccc(F)c3)c(Cl)c2)n1 ), measured inhibition is 0.81

====

Biological target: Interleukin-1 receptor-associated kinase 4 (Homo sapiens);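 also: mean inhibition values, from the GSK PKIS dataset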
Conditions: at 1 µM
Entry flag: satisfied if inhibition reaches 2%; not satisfied if it does not.

Example entries begin here.
structureString	subjectOfTest	assignedClass
FC(F)(F)c1ccc(-c2nn3ncccc3c2-c2ccnc(Nc3ccc4c(c3)OCCO4)n2)cc1	Interleukin-1 receptor-associated kinase 4 (Homo sapiens)	not satisfied
COc1cc(Nc2nccc(-c3cnn4ncccc34)n2)cc(OC)c1	Interleukin-1 receptor-associated kinase 4 (Homo sapiens)	satisfied
COc1cccc(-n2nc(C)c3c(N/N=C(\C)c4ccncc4)ncnc32)c1	Interleukin-1 receptor-associated kinase 4 (Homo sapiens)	not satisfied
NS(=O)(=O)c1cccc(Nc2cc(-c3ccc(F)cc3)n[nH]2)c1	Interleukin-1 receptor-associated kinase 4 (Homo sapiens)	not satisfied

From here, focus on the item given below.
Q: // inclusive: inhibition at least 2%? input: NS(=O)(=O)c1cccc(-c2cc3ccncc3cc2OCc2ccccc2)c1
Result: satisfied

====

Item-by-item account of inhibition
Target: MAP kinase-interacting serine/threonine-protein kinase 2 (Homo sapiens) (UniProt Q9HBH9)
Sequence (Q9HBH9 whole entry, looked up): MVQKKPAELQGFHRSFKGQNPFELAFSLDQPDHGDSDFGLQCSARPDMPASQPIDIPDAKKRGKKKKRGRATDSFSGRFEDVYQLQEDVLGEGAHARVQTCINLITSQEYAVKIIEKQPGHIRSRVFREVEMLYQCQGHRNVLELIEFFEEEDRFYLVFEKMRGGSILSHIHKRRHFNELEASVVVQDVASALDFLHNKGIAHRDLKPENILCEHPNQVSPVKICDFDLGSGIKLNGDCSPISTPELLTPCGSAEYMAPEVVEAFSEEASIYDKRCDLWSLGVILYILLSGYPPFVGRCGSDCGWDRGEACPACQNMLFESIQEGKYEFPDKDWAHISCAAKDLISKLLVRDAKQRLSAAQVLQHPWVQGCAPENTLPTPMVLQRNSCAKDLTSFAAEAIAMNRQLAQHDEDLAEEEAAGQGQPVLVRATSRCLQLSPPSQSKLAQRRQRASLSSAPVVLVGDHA
Conditions: at 0.1 µM
Description: GSK_PKIS: MNK2 mean inhibition at 0.1 uM [Nanosyn]
API: value field is a number in %; no unit string.

inhibition of FC(F)(F)c1ccc(-c2nn3ncccc3c2-c2ccnc(Nc3ccc4c(c3)OCCO4)n2)cc1 , assay on MAP kinase-interacting serine/threonine-protein kinase 2 (Homo sapiens) (UniProt Q9HBH9), is 6.24

inhibition of c1ccc(Cc2nc3ccc(Nc4ncnc5ccccc45)cc3[nH]2)cc1 , assay on MAP kinase-interacting serine/threonine-protein kinase 2 (Homo sapiens) (UniProt Q9HBH9), is 1.25

inhibition of NC(=O)c1cccc(Nc2nccc(Nc3cccc(F)c3)n2)c1 , assay on MAP kinase-interacting serine/threonine-protein kinase 2 (Homo sapiens) (UniProt Q9HBH9), is 0.26

inhibition of CN(C)C(=O)O[C@@H]1CN[C@@H](C#Cc2cc3ncnc(Nc4ccc(OCc5cccc(F)c5)c(Cl)c4)c3s2)C1 , assay on MAP kinase-interacting serine/threonine-protein kinase 2 (Homo sapiens) (UniProt Q9HBH9), is 0.4

inhibition of CCS(=O)(=O)c1ccc(OC)c(Nc2nccc(N(C)c3ccc4c(C)n[nH]c4c3)n2)c1 , assay on MAP kinase-interacting serine/threonine-protein kinase 2 (Homo sapiens) (UniProt Q9HBH9), is 0.35

inhibition of CCS(=O)(=O)c1ccc(OC)c(Nc2ncc(-c3cccc(OC)c3)o2)c1 , assay on MAP kinase-interacting serine/threonine-protein kinase 2 (Homo sapiens) (UniProt Q9HBH9), is 1.44

inhibition of COc1cc2ncnc(Nc3ccc4c(cnn4Cc4ccccc4)c3)c2cc1OC , assay on MAP kinase-interacting serine/threonine-protein kinase 2 (Homo sapiens) (UniProt Q9HBH9), is 0.99
